For each entry below, report its IC50 value.
Target: Cholecystokinin receptor (Rattus norvegicus, UniProt P30551+P30553)
Format: protein assay
Description: Half-maximal inhibition of [125I]-CCK-33 binding to rat pancreas cholecystokinin receptor
One number for each entry, in µM.

Solved cases (3 shown):
compound="O=C1Nc2ccc(Cl)cc2C(c2ccccc2)=NC1Cc1ccc2ccccc2c1 (configuration not stated)" reported_value=49
compound=N#CCCN1C(=O)[C@@H](Cc2c[nH]c3ccccc23)N=C(c2ccccc2F)c2ccccc21 reported_value=0.7
compound=CC1=N[C@H](Cc2c[nH]c3ccccc23)C(=O)Nc2ccccc21 reported_value=48

Please give IC50, item by item, for the list that follows.
1. O=C1Nc2ccccc2C(c2ccccc2F)=NC1Cc1c[nH]c2ccc(F)cc12 (configuration not stated)
2. CC(C)CC(NC(=O)OC(C)(C)C)C(=O)N1CC(CC2N=C(c3ccccc3)c3ccccc3NC2=O)c2ccccc21 (configuration not stated)

a:
1: 1.4; 2: 4.7

I have 2 compounds here; please give me IC50 for each one.
1. O=C1Nc2ccc(Cl)cc2C(c2ccccc2)=N[C@@H]1Cc1ccccc1
2. O=C1Nc2ccccc2C(c2ccccc2)=NC1C[C@H]1CNc2ccccc21 (some centres not stated)

a:
1. 80
2. 21

---

What IC50 was measured for each of the following?
Target: Cholecystokinin receptor (Rattus norvegicus, UniProt P30551+P30553)
Format: protein assay

The examples below pair each entry with its known result.
molecule=CN1C(=O)[C@@H](Cc2cn(Cc3ccccc3)c3ccccc23)N=C(c2ccccc2)c2cc(Cl)ccc21 target_or_test_system="Cholecystokinin receptor (Rattus norvegicus, UniProt P30551+P30553)" reported_value="~ 150 uM"
molecule=CCCCCN1C(=O)[C@@H](Cc2c[nH]c3ccccc23)N=C(c2ccccc2F)c2ccccc21 target_or_test_system="Cholecystokinin receptor (Rattus norvegicus, UniProt P30551+P30553)" reported_value="~ 100 uM"
molecule=CN(C)CCN1C(=O)[C@@H](Cc2c[nH]c3ccccc23)N=C(c2ccccc2F)c2ccccc21 target_or_test_system="Cholecystokinin receptor (Rattus norvegicus, UniProt P30551+P30553)" reported_value="~ 100 uM"
molecule="CC(=O)N1C(Cc2cn(C)c3ccccc23)C(=O)N(C)c2ccccc2[C@@H]1c1ccccc1F (stereo not given in full)" target_or_test_system="Cholecystokinin receptor (Rattus norvegicus, UniProt P30551+P30553)" reported_value="~ 100 uM"

Next, consider the following molecule.
q: For the molecule shown here, CC(C)CCN1C(=O)[C@@H](Cc2c[nH]c3ccccc23)N=C(c2ccccc2F)c2ccccc21 , give the reported IC50.
a: ~ 100 uM

---

Biological target: Cholecystokinin receptor (Rattus norvegicus, UniProt P30551+P30553)
Sequence (P30551 whole entry): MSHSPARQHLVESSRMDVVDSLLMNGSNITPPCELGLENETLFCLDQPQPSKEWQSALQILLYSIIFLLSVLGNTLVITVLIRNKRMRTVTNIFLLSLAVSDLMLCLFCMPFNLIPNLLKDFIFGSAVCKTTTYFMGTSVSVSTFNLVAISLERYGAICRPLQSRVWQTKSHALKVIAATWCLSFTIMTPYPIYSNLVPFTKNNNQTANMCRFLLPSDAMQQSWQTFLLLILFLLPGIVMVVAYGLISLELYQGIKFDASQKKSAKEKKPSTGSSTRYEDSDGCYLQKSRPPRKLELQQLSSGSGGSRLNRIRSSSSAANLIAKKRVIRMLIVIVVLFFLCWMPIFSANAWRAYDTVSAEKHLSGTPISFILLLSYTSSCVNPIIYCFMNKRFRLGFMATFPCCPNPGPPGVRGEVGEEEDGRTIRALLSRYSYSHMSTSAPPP
Sequence (P30553 whole entry): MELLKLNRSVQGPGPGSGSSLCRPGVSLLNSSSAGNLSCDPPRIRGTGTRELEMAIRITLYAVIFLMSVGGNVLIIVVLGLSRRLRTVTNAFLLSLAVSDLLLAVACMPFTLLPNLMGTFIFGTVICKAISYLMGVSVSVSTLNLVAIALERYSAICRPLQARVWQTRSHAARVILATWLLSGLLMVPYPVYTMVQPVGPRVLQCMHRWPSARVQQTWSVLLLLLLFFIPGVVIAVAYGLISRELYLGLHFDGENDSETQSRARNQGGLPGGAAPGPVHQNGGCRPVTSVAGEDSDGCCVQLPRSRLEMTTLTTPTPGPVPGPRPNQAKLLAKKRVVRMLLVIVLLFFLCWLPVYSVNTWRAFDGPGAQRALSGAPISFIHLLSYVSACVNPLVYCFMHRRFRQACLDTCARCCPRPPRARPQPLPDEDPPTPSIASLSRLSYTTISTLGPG
Assay type: protein assay
Test Readout: IC50

Worked cases, IC50 given:
compound="O=C1Nc2ccccc2C(c2ccccc2F)=NC1c1ccsc1 (stereo not given)" reported_value="> 100 µM"
compound=O=C1Nc2ccccc2C(c2ccccc2F)=N[C@@H]1Cc1c[nH]c2ccccc12 reported_value="0.5 µM"
compound=O=C1Nc2ccccc2C(c2ccccc2F)=N[C@H]1Cc1c[nH]c2ccccc12 reported_value="10.6 µM"
compound="O=C1Nc2ccccc2C(c2ccccc2F)=NC1C[C@@H]1CNc2ccccc21 (stereo not given in full)" reported_value="11 µM"

Now look at this entry.
q: Provide the documented IC50 with Cholecystokinin receptor (Rattus norvegicus, UniProt P30551+P30553) as the system for O=C1Nc2ccccc2C(c2ccccc2F)=NC1Cc1ccsc1 (stereo not given)
a: 33 µM
